# measurementTarget: BIR3 domain of human cIAP-1 (residues 267-363) (Homo sapiens (Human), UniProt Q13490)
# protocol: cIAP-1 in vitro competitive displacement binding assay (fluorescence polarization; Probe A AVPIK(5&6FAM)-amide or Probe B AbuRPFK(5&6FAM)-amide)
# assayContext: 3 h; Probe B, @ 0.012 μM; read-out: IC50 or PI cIAP1: PI
Counter-ions that a name gives are not always drawn.
quantity: inhibition at […] (%)

Recorded results for 4 compounds are shown here.
Data request, read-out inhibition at […], for C[C@@H]1CN(CC(=O)N2CC(C)(C)c3ncc(Cc4ccccc4F)cc32)[C@@H](CN2CCCC2=O)CN1 [Example 249, hydrochloride]
90

Data request, read-out inhibition at […], for C[C@@H]1CN(CC(=O)N2CC(C)(C)c3cnc(Cc4ccccc4F)cc32)[C@@H](CN2CCOCC2)CN1 [Example 245, hydrochloride]
86

Data request, read-out inhibition at […], for C[C@@H]1CN(CC(=O)N2CC(C)(C)c3cnc(Cc4ccccc4F)cc32)[C@@H](CN2CCCC2=O)CN1 [Example 242, hydrochloride]
92

Data request, read-out inhibition at […], for C[C@@H]1CN(CC(=O)N2CC(C)(C)c3cnc(Cc4ccccc4)cc32)[C@@H](Cn2cc(F)cn2)CN1 [Example 157, hydrochloride]
78

[1] C[C@@H]1CN(CC(=O)N2CC(C)(C)c3cnc(Cc4ccc(F)cc4F)cc32)[C@@H](CN2CCCCC2=O)CN1 [Example 192, hydrochloride]
[2] CCCC(F)(F)c1cc2c(cn1)C(C)(C)CN2C(=O)CN1C[C@@H](C)NC[C@@H]1Cc1nccs1 [Example 233, hydrochloride]
Select the item with the higher value of inhibition at […] from the options 1 and 2 listed. Your choice should be expressed through its label.
1

----------
# measurementTarget: BIR3 domain of human XIAP (residues 252-350) (Homo sapiens (Human))
# protocol: XIAP in vitro competitive displacement binding assay (fluorescence polarization)
# assayContext: read-out: IC50 or PI Xiap: IC50
pIC50: −log10 of the molar value. Where a name gives a salt, the structure may show the parent alone.
quantity: pIC50

Recorded results for 6 compounds are shown here.
Data request, read-out pIC50, for COC[C@H]1CN[C@H](C)CN1CC(=O)N1CC(C)(C)c2cnc(C3=CCCCC3)cc21 [Example 106, hydrochloride salt]
6.96

Data request, read-out pIC50, for C[C@@H]1CN(CC(=O)N2CC(C)(C)c3cnc(Cc4ccccc4)cc32)[C@@H](C(=O)N2CCOCC2)CN1 [Example 101, hydrochloride salt]
7.14

Data request, read-out pIC50, for COC[C@H]1CN[C@H](C)CN1CC(=O)N1CC(C)(C)c2cnc(Oc3c(F)cccc3F)cc21 [Example 128, hydrochloride]
6.42

Data request, read-out pIC50, for C[C@@H]1CN(CC(=O)N2CC(C)(C)c3cnc(Cc4ccc(F)cc4F)cc32)[C@@H](Cn2cccnc2=O)CN1 [Example 185, dihydrochloride]
7.11

Data request, read-out pIC50, for C[C@@H]1CN(CC(=O)N2CC(C)(c3ccccc3)c3ccc(C#N)cc32)[C@@H](Cn2cccn2)CN1 (some centres unmarked) [Example 143, hydrochloride]
7.00

Data request, read-out pIC50, for COC[C@H]1CN[C@H](C)CN1CC(=O)N1CC(C)(C)c2cnc(CC3CCCCC3)cc21
6.00

[P] COC[C@H]1CN[C@H](C)CN1CC(=O)N1CC(C)(C)c2cnc(Oc3ccccc3C)cc21 [Example 83, hydrochloride salt]
[Q] CC(C)S(=O)(=O)c1cc2c(cc1F)C(C)(C)CN2C(=O)CN1CCN[C@H](C)C1
[R] COC[C@H]1CN[C@H](C)CN1CC(=O)N1CC(C)(C)c2cnc(Cc3ccc(Cl)cc3)cc21
[S] COC[C@H]1CN[C@H](C)CN1CC(=O)N1CC(C)(C)c2cnc(Oc3ccccc3Cl)cc21 [Example 110, hydrochloride salt]
In this exercise, place the 4 compounds in ascending sequence of their recorded pIC50. Note for the reader: the ranking is given by listing the labels in the order requested.
Q, P, R, S
(Q: 6.02, P: 6.46, R: 6.66, S: 7.12)

[I] COC[C@H]1CN[C@H](C)CN1CC(=O)N1CC(C)(COC)c2ccc(Br)cc21 (some centres unmarked) [Example 127, hydrochloride]
[II] COC[C@H]1CN[C@H](C)CN1CC(=O)N1CC(C)(C)c2cc(=O)n(Cc3ccccc3)cc21 [Example 67, hydrochloride salt]
Lab note: check whether I or II has the lower measured pIC50. Your choice should be expressed through its label.
I

----------
# measurementTarget: BIR3 domain of human cIAP-1 (residues 267-363) (Homo sapiens (Human), UniProt Q13490)
# protocol: cIAP-1 in vitro competitive displacement binding assay (fluorescence polarization; Probe A AVPIK(5&6FAM)-amide or Probe B AbuRPFK(5&6FAM)-amide)
# assayContext: 3 h; Probe A, @ 160 μM; read-out: IC50 or PI cIAP1: PI
quantity: inhibition at 160 µM (%)

Data request, read-out inhibition at 160 µM, for C[C@@H]1CN(CC(=O)N2CCc3cnccc32)CCN1 [Example 14]
46

Data request, read-out inhibition at 160 µM, for C[C@@H]1CN(CC(=O)N2CCc3ccc(C(=O)N(C)C)cc32)CCN1 [Example 17]
44

Data request, read-out inhibition at 160 µM, for C[C@@H]1CN(CC(=O)N2CCc3ccc(F)cc32)CCN1 [Example 10]
51

Data request, read-out inhibition at 160 µM, for C[C@@H]1CN(CC(=O)N2CCc3ccc(NS(C)(=O)=O)cc32)CCN1 [Example 8]
46

----------
// values below are reported IC50
# measurementTarget: BIR3 domain of human XIAP (residues 252-350) (Homo sapiens (Human))
# protocol: XIAP in vitro competitive displacement binding assay (fluorescence polarization)
# assayContext: read-out: IC50 or PI Xiap: IC50
Where a name gives a salt, the structure may show the parent alone.
Please reply with the bare figure in nM and do not write the unit itself.

Recorded results for 2 compounds are shown here.
Data request, read-out IC50, for C[C@@H]1CN(CC(=O)N2CC(C)(C)c3cnc(Cc4ccccc4)cc32)[C@@H](C(=O)N2CCC2)CN1 [Example 100, hydrochloride salt]
120

Data request, read-out IC50, for COC[C@H]1CN[C@H](C)CN1CC(=O)N1CC(C)(C)c2cnc(-c3cc4ccccc4o3)cc21 [Example 150, dihydrochloride]
270

***
Data request, read-out IC50, for C[C@@H]1CN(CC(=O)N2CC(C)(C)c3ncc(C(C)(F)F)cc32)[C@@H](CN2CCN(C)C(=O)C2)CN1 [Example 228, dihydrochloride]
99

----------
# measurementTarget: BIR3 domain of human XIAP (residues 252-350) (Homo sapiens (Human))
# protocol: XIAP in vitro competitive displacement binding assay (fluorescence polarization)
# assayContext: read-out: IC50 or PI Xiap: IC50
pIC50: −log10 of the molar value. Counter-ions that a name gives are not always drawn.
quantity: pIC50

Data request, read-out pIC50, for C[C@@H]1CN(CC(=O)N2CC(C)(C)c3nnc(Cc4ccc(F)cc4F)cc32)[C@@H](CN2CCCC2=O)CN1 [Example 201, hydrochloride]
7.09

Data request, read-out pIC50, for COC[C@H]1CN[C@H](C)CN1CC(=O)N1C[C@@](C)(COC)c2ccc(Br)cc21 [Example 169, hydrochloride]
6.04

Data request, read-out pIC50, for C[C@@H]1CN(CC(=O)N2CC(C)(C)c3ncc(C(F)(F)C4CCC4)cc32)[C@@H](CN2CCCC2=O)CN1 [Example 226, dihydrochloride]
7.34

[1] COC[C@H]1CN[C@H](C)CN1CC(=O)N1CC(C)(C)c2ccc(C#N)cc21 [Example 117, hydrochloride]
[2] C[C@@H]1CN(CC(=O)N2CC3(Cc4ccccc4C3)c3ccc(C#N)cc32)[C@@H](C(=O)N2CCOCC2)CN1 [Example 109, hydrochloride salt]
Select the item with the higher value of pIC50 from the options 1 and 2 listed. Your choice should be expressed through its label.
2

----------
# measurementTarget: BIR3 domain of human XIAP (residues 252-350) (Homo sapiens (Human), UniProt P98170)
# protocol: XIAP in vitro competitive displacement binding assay (fluorescence polarization)
# assayContext: read-out: IC50 or PI Xiap: IC50
Counter-ions that a name gives are not always drawn.
quantity: IC50 (nM)

Please state recorded IC50 (tested on BIR3 domain of human XIAP (residues 252-350) (Homo sapiens (Human), UniProt P98170)) of C[C@@H]1CN(CC(=O)N2CC(C)(C)c3cnc(Cc4ccc(F)cc4F)cc32)[C@@H](CN2CCCCC2=O)CN1 [Example 192, hydrochloride]
58

Please state recorded IC50 (tested on BIR3 domain of human XIAP (residues 252-350) (Homo sapiens (Human), UniProt P98170)) of COC[C@H]1CN[C@H](C)CN1CC(=O)N1CC(C)(C)c2cnc(C(F)(F)c3ccccc3)cc21 [Example 146, hydrochloride]
75

Please state recorded IC50 (tested on BIR3 domain of human XIAP (residues 252-350) (Homo sapiens (Human), UniProt P98170)) of C[C@@H]1CN(CC(=O)N2CC(C)(C)c3ncc(Cc4ccc(F)cc4F)cc32)[C@@H](CN2CC[C@H](F)C2)CN1 [Example 204, dihydrochloride]
110

Please state recorded IC50 (tested on BIR3 domain of human XIAP (residues 252-350) (Homo sapiens (Human), UniProt P98170)) of C[C@@H]1CN(CC(=O)N2C[C@](C)(c3ccccc3)c3ccc(C#N)cc32)[C@@H](Cn2cccn2)CN1 [Example 155]
72

Please state recorded IC50 (tested on BIR3 domain of human XIAP (residues 252-350) (Homo sapiens (Human), UniProt P98170)) of C[C@@H]1CN(CC(=O)N2CC(C)(C)c3cnc(Cc4ccccc4)cc32)[C@@H](C(F)F)CN1 [Example 122, hydrochloride]
220

[A] C[C@@H]1CN(CC(=O)N2CCc3cc(Br)c(S(=O)(=O)N(C)C)cc32)CCN1 [Example 26, hydrochloride salt]
[B] C[C@@H]1CN(CC(=O)N2CC(C)(C)c3c(Cl)cc(Cl)cc32)CCN1 [Example 46, hydrochloride salt]
[C] C[C@@H]1CN(CC(=O)N2CC(C)(C)c3cnc(Cc4ccccc4)cc32)[C@@H](Cn2cccn2)CN1 [Example 112]
In this exercise, place the 3 molecules in ascending sequence of their recorded IC50. Note for the reader: the ranking is given by listing the labels in the order requested.
C, A, B

[A] CNC(=O)[C@H]1CN[C@H](C)CN1CC(=O)N1CC(C)(C)c2ccc(Cl)cc21 [Example 54, hydrochloride salt]
[B] COC[C@H]1CN[C@H](C)CN1CC(=O)N1C[C@](C)(COC)c2ccc(Br)cc21 [Example 168, hydrochloride]
Lab note: check whether A or B has the lower measured IC50. Your choice should be expressed through its label.
A
